Molecular target: recombinant human GR (Homo sapiens)
Sequence (P04150 1-777): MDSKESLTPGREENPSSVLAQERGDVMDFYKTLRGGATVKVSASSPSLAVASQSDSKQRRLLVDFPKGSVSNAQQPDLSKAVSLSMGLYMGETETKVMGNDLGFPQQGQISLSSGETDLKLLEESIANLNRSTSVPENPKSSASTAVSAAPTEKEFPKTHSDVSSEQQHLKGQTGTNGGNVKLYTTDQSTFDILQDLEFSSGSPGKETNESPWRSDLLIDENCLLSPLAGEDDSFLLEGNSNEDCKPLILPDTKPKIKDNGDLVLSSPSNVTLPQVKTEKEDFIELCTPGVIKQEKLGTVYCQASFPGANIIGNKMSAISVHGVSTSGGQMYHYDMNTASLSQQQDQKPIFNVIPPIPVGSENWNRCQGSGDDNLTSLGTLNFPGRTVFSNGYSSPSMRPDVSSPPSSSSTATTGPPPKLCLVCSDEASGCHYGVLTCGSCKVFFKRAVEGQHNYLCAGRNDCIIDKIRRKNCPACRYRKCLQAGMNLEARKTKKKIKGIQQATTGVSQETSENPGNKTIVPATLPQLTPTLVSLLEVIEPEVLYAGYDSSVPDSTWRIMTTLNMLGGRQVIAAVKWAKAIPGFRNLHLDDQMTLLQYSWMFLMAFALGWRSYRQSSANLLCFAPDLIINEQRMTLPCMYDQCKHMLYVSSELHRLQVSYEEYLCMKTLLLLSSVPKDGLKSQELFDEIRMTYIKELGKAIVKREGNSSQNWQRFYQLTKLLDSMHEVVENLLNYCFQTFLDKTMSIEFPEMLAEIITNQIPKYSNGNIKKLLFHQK
Assay: Human Glucocorticoid Receptor (GR) Assay, fluorescence polarization
Conditions: GS Red tracer, incubated 2 h at r.t., XLfit model 205, read-out: GRhuFL_FP_v2 Mean IC50
Structures can show the parent of a compound that is named as a salt.
QUANTITY: pIC50
pIC50 (log units): -log10 of the concentration in mol/L.

Recorded pIC50, per entry:
# MOLECULE, pIC50
rows = [
    ("COc1cccc([C@@H](Oc2ccc3c(cnn3-c3ccc(F)cc3)c2)[C@H](C)NC(=O)c2ccc(Br)s2)c1 [Example 272]", 8.37),
    ("Cc1cnc(C(=O)N[C@@H](C)[C@H](Oc2ccc3c(cnn3-c3ccc(F)cc3)c2)c2ccc(C(C)(C)C)cc2)s1 [Example 208]", 8.09),
    ("COc1cccc([C@@H](Oc2ccc3c(cnn3-c3ccc(F)cc3)c2)[C@H](C)NC(=O)CF)c1 [Example 53]", 8.46),
]

# input Param readout= pIC50; system= recombinant human GR (Homo sapiens); entry= C[C@H](NC(=O)Cc1ccccc1)[C@H](Oc1ccc2c(cnn2-c2ccc(F)cc2)c1)c1ccccc1 [Example 33] ; returns value.
# output 7.74

# input Param readout= pIC50; system= recombinant human GR (Homo sapiens); entry= C[C@H](NC(=O)CF)[C@H](Oc1ccc2c(cnn2-c2ccc(F)cc2)c1)c1ccccc1 [Example 45] ; returns value.
# output 8.59

# input Param readout= pIC50; system= recombinant human GR (Homo sapiens); entry= COc1cccc([C@@H](Oc2ccc3c(cnn3-c3ccc(F)cc3)c2)[C@H](C)NC(=O)c2nc(C)cs2)c1 [Example 290] ; returns value.
# output 8.51

# input Param readout= pIC50; system= recombinant human GR (Homo sapiens); entry= COc1ccc([C@@H](Oc2ccc3c(cnn3-c3ccc(F)cc3)c2)[C@H](C)NC(=O)C(C)(C)C)cc1F [Example 177] ; returns value.
# output 8.41

# input Param readout= pIC50; system= recombinant human GR (Homo sapiens); entry= C[C@H](NC(=O)CO)[C@H](Oc1ccc2c(cnn2-c2ccc(F)cc2)c1)c1ccc2ccccc2c1 [Example 21] ; returns value.
# output 8.49

# input Param readout= pIC50; system= recombinant human GR (Homo sapiens); entry= COc1cccc([C@@H](Oc2ccc3c(cnn3-c3ccc(F)cc3)c2)[C@H](C)NC(=O)[C@@H](C)N)c1 [Example 303, trifluoroacetic acid salt] ; returns value.
# output 8.30

# input Param readout= pIC50; system= recombinant human GR (Homo sapiens); entry= COc1cccc([C@@H](Oc2ccc3c(cnn3-c3ccc(F)cc3)c2)[C@H](C)NC(=O)c2cc(C)on2)c1 [Example 136] ; returns value.
# output 8.52

Taken from patent US8143290B2.
